target: BTK (Mus musculus); construct: from tissue; host or cells: mouse blood B cells / splenocytes (CD-1 or BALB/c); assay: In vivo degradation of BTK in mouse PD experiments with oral dosing; details: oral dose 3 mg/kg, 24 h, blood, flow cytometry
Sequence (P35991 whole entry): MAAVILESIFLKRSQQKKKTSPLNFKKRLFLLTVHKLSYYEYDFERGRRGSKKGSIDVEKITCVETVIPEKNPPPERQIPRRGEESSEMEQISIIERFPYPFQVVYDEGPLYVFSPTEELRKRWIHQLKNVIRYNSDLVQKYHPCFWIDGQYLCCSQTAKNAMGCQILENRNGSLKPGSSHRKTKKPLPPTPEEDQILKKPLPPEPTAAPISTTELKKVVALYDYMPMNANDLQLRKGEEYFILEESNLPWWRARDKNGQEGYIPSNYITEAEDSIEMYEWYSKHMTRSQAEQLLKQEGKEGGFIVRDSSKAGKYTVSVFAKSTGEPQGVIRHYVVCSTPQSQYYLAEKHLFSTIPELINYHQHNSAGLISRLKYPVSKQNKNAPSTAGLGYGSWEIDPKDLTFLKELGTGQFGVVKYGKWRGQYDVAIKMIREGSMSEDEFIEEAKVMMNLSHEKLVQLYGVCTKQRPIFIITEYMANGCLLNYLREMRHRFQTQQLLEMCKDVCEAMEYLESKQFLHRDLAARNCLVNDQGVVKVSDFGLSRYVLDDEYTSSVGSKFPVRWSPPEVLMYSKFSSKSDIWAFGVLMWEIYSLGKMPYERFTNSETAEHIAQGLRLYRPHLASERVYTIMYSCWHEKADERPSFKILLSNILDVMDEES
property-measured: % BTK Remaining (%)
One number for each entry, in %.

Solved cases below.
>>> recorded_number("CN1CCN([C@H]2CCCN(c3cnc(C(N)=O)c(Nc4cnn(C5CCN(CC6CCN(c7ccc8c(c7)C(=O)N(C7CCC(=O)NC7=O)C8=O)CC6)CC5)c4)n3)C2)C1=O (stereo partly shown) [Compound 83]")
63
>>> recorded_number("CN1CCN([C@@H]2CCCN(c3cnc(C(N)=O)c(Nc4ccc(C5CN(CC6CCN(c7ccc8c(=O)n(C9CCC(=O)NC9=O)ccc8c7)CC6)C5)cc4)n3)C2)C1=O (stereo partly shown) [Compound 69]")
43
>>> recorded_number("CN1CCN([C@@H]2CCCN(c3cnc(C(N)=O)c(Nc4ccc(C5CCN(C6CN(c7ccc8c(c7)C(=O)N(C7CCC(=O)NC7=O)C8=O)C6)CC5)cc4)n3)C2)C1=O (stereo partly shown) [Compound 53]")
56
>>> recorded_number("CN1CCN([C@@H]2CCCN(c3cnc(C(N)=O)c(Nc4ccc(N5CCC6(CC5)CCN(c5ccc7c(c5)C(=O)N(C5CCC(=O)NC5=O)C7=O)CC6)cc4)n3)C2)C1=O (stereo partly shown) [Compound 55]")
55
>>> recorded_number("CN1CCN([C@@H]2CCCN(c3cnc(C(N)=O)c(Nc4ccc(C5CN(C6CCN(c7ccc8c(c7)C(=O)N(C7CCC(=O)NC7=O)C8=O)CC6)C5)cc4)n3)C2)C1=O (stereo partly shown) [Compound 37]")
51

State recorded % BTK Remaining for all listed compounds.
1. CN1CCN([C@@H]2CCCN(c3cnc(C(N)=O)c(Nc4ccc(C5CCN(CC6CCN(c7ccc(-c8nn(C9CCC(=O)NC9=O)c(=O)n8C)cc7)CC6)CC5)cc4)n3)C2)C1=O (stereo partly shown) [Compound 121]
2. CN1CCN([C@H]2CCCN(c3cnc(C(N)=O)c(Nc4ccc(N5CCC6(CCN(c7ccc8c(c7)C(=O)N(C7CCC(=O)NC7=O)C8=O)CC6)CC5)nc4)n3)C2)C1=O (stereo partly shown) [Compound 80]
3. CN1CCN([C@@H]2CCCN(c3cnc(C(N)=O)c(Nc4ccc(C5CCN(CC6CCN(c7ccc(C(=O)N[C@@H]8CCC(=O)NC8=O)nc7)CC6)CC5)cc4)n3)C2)C1=O [Compound 194]
4. CN1CCN([C@@H]2CCCN(c3cnc(C(N)=O)c(Nc4ccc(C5CCN(C6CN(Cc7ccc8c(c7)CN(C7CCC(=O)NC7=O)C8=O)C6)CC5)cc4)n3)C2)C1=O (stereo partly shown) [Compound 86]
5. CN1CCN([C@@H]2CCCN(c3cnc(C(N)=O)c(Nc4ccc(C5CCN(CC6CCN(c7ccc(C(=O)N[C@H]8CCC(=O)NC8=O)nc7)CC6)CC5)cc4)n3)C2)C1=O [Compound 195]

1. 68
2. 77
3. 90
4. 70
5. 40
